Where do the numbers come from? From patent US12161650B2.

- METHOD_DESCRIPTION: Phase 1 clinical trial, Part II multiple ascending doses over 14 days, plasma pharmacokinetics
- Format: in vivo, human (healthy male volunteers)
- TEST_PARAMETERS: male, human, plasma, oral, 120 mg, 120 mg once daily, Day 14, geom. mean
- Experimental: A Phase 1, randomized, double-blind, placebo-controlled clinical trial was performed to assess the safety and pharmacokinetics (PK) of Compound I after single, escalating, and repeated oral doses in health male volunteers. […] The area under the plasma concentration-time curve was calculated using a combined linear and logarithmic trapezoidal rule. […] Plasma and muscle samples were analyzed by LC-MS/MS method.
MEASURED_ENDPOINT: Cmax
The answer should read as a number with its unit following.

Challenge: Name the reported Cmax value associated with the compound `COc1ccc2c(c1)CN(Cc1ccc(C(=O)O)cc1)CCS2.O=C(O)/C=C/C(=O)O`
Response given: 16300 ng/mL
